Reference source for all entries: ChEMBL document CHEMBL4017444

Test system: HeLa
Experiment: Antiproliferative activity against human HeLa cells after 48 hrs by MTT assay
Format: functional, cell-based
Measurement Name: IC50 (µM)
Numbers only here, please. The scale is µM.

Form field: reported IC50 of `COc1cc(/C=C/C(=O)NO)ccc1OC[C@H](Cc1c[nH]c2ccccc12)NC(=O)c1ccc(Br)cc1`
0.58

Proceed to `COc1cc(/C=C/C(=O)NO)ccc1OC[C@H](Cc1c[nH]c2ccccc12)NC(=O)c1cccc(Cl)c1`
0.43

Proceed to `COc1cc(/C=C/C(=O)NO)ccc1OC[C@H](Cc1c[nH]c2ccccc12)NC(=O)c1ccc(C)cc1`
0.31

Proceed to `COc1ccc(C(=O)N[C@H](COc2ccc(/C=C/C(=O)NO)cc2OC)Cc2c[nH]c3ccccc23)cc1`
0.43

* * *

Tested on: MOLT-4
Assay: Antiproliferative activity against human MOLT4 cells after 48 hrs by MTT assay
Assay type: functional, cell-based
Details: MOLT-4, 48 h
Consider the following molecules; for each one, report its pIC50.
The meaning of pIC50 here: minus log10 of the concentration in molar units.

Form field: reported pIC50 of `COc1ccc(C(=O)N[C@H](COc2ccc(/C=C/C(=O)NO)cc2OC)Cc2c[nH]c3ccccc23)cc1`
7.22

Proceed to `COc1cc(/C=C/C(=O)NO)ccc1OC[C@H](Cc1c[nH]c2ccccc12)NC(=O)c1ccc(C)cc1`
7.40

Proceed to `COc1cc(/C=C/C(=O)NO)ccc1OC[C@H](Cc1c[nH]c2ccccc12)NC(=O)c1ccc(Br)cc1`
7.22

Proceed to `COc1cc(/C=C/C(=O)NO)ccc1OC[C@H](Cc1c[nH]c2ccccc12)NC(=O)c1cccc(Cl)c1`
7.22
